- MEASURED_TARGET: PfHtrA2 (HtrA2/Omi serine protease) (Plasmodium falciparum, UniProt A0A143ZXD4)
- Construct: protease domain (135–290 aa; HtrA2-protease), histidine-tagged, expressed in E. coli
- Sequence (A0A143ZXD4 135-290): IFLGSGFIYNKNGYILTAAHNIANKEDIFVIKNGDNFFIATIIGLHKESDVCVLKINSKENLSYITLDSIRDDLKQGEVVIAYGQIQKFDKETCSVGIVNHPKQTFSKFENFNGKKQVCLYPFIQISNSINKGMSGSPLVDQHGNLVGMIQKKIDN
- ASSAY_SUMMARY: fluorogenic protease activity assay of the recombinant protease domain, concentration-dependent inhibition
QUANTITY_NAME: IC50 (µM)

INSERT INTO results (compound, test_result) VALUES
  ('O=C1C(=Cc2ccc(-c3ccccc3[N+](=O)[O-])o2)C(=O)N(c2ccccc2)C(=S)N1c1ccccc1 [ucf-101]', 8.1);
